Just for reference, PubChem BioAssay is where these values come from.

molecular target: NADPH oxidase 2 (Homo sapiens) (UniProt P04839); test: compounds shifting NOX2 Amplex Red fluorescence – cell-based, HEK293-NOX2, PMA-stimulated, NOX inhibitor project, primary screen (AID 1159); conditions: 45 min, higher = more signal, called active from +8 up or from −8 down; also: test concentration not given here
Sequence (P04839 whole entry, looked up): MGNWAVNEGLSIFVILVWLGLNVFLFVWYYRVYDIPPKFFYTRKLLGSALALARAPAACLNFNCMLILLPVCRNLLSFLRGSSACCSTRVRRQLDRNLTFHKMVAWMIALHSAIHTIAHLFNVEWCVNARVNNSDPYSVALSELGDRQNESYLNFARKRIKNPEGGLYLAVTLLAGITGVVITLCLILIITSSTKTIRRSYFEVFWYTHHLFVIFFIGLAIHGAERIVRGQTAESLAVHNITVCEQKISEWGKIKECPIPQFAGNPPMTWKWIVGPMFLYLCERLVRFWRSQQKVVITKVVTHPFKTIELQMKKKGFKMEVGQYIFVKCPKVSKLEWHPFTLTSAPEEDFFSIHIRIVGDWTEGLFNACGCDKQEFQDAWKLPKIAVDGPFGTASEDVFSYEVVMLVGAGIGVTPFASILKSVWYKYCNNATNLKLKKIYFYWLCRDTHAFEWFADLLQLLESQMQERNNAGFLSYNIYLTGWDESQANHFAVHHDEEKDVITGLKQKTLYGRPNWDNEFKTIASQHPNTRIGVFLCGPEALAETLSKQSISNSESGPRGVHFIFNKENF
reported property: z-score
Note: the reply should be a number with no unit written.

Provide measured z-score value, entry: COCCOC(=O)N1C(=O)[C@@]2(c3ccccc31)[C@H](C(=O)N1CCN(c3ncccn3)CC1)[C@H]1C(=O)O[C@H](c3ccccc3)[C@H](c3ccccc3)N1[C@@H]2c1ccccc1OCCO
0.89

Provide measured z-score value, entry: CC(C)(C)OC(=O)CC[C@@]1(C(=O)NCCN2CCOCC2)N=C(c2ccc(OCCCO)cc2)O[C@@H]1c1ccccc1CN=[N+]=[N-]
0.73

Provide measured z-score value, entry: C[N+](C)(C)CCCC[C@@H]1NC(=O)[C@H]2C[C@@H](C(=O)NCCCCCNC(=O)CS)[C@@H](c3cccc(OCCO)c3)N2C1=O
1.94

Provide measured z-score value, entry: CC(C)N1C(=O)c2ccccc2[C@@H](C(=O)NCC(F)(F)F)[C@@H]1c1ccc(CO)cc1
0.74

Provide measured z-score value, entry: C=CCC(OC(C)=O)[C@@H]1[C@@H](N(Cc2cc3ccccc3o2)C(=O)c2cccc3ccccc23)c2cc(OCCCO)ccc2N1C(=O)c1ccc2ccccc2n1 (some centres undefined)
0.889

Provide measured z-score value, entry: CCOC(=O)C1=CC[C@@H](c2ccc(OC)cc2)N(S(=O)(=O)c2ccc(C)cc2)[C@H]1c1ccc(C)cc1
0.864

Provide measured z-score value, entry: C=CCNC(=O)[C@H]1[C@@H]2C(=O)O[C@@H](c3ccccc3)[C@@H](c3ccccc3)N2[C@@H](c2ccccc2OCCO)[C@]12C(=O)N(C(=O)OCCOC)c1ccc(C#Cc3ccc(OC)cc3)cc12
1.74

Provide measured z-score value, entry: CC(C)[Si](C#CCCc1ccccc1)(O[C@H](c1ccccc1)c1cn(Cc2ccccc2)nn1)C(C)C
-0.967

Provide measured z-score value, entry: CC(C)(C)N1CC=CC23O[C@@H]4C=CCOC(=O)[C@@H]4[C@H]2C(=O)N(CCO)[C@@H]3C1=O (some centres undefined)
1.09

Provide measured z-score value, entry: NC(=O)NCC#Cc1ccc2c(c1)[C@]1(C(=O)N2)[C@H](c2ccc(OCCO)cc2)N2[C@H](c3ccccc3)[C@H](c3ccccc3)OC(=O)[C@H]2[C@@H]1C(=O)O
1.97

Provide measured z-score value, entry: O=C1c2ccccc2[C@@]2(Cc3ccccc3N(Cc3ccccc3)C2=O)[C@H](c2ccc(CO)cc2)N1Cc1ccccc1Cl
-0.534

Provide measured z-score value, entry: [N-]=[N+]=Nc1ccccc1C[C@@]1(C(=O)NCc2ccccc2)N=C(c2ccc(OCCCO)cc2)O[C@@H]1c1ccccc1N=[N+]=[N-]
-4.79

Provide measured z-score value, entry: CCCc1cc2c(n1CCc1ccc(Cl)cc1)C(C)C1CN(C(=O)c3ccccc3)C(C)(C(=O)OC)C21 (centres undefined)
-2.06

Provide measured z-score value, entry: COC(=O)[C@@]1(Cc2ccc(OC)cc2)[C@H]2c3cc(C(=O)N4CCCC4)n(CCn4cc([N+](=O)[O-])nc4C)c3C[C@H]2CN1C(=O)c1ccccc1
0.54

Provide measured z-score value, entry: O=C1NC(=O)C2C1C=CC(C(O)c1ccc([N+](=O)[O-])cc1)N2Nc1ccccn1 (centres undefined)
-0.728

Provide measured z-score value, entry: CCOC(=O)c1cn(C[C@H](Cc2ccccc2)NC(=O)N[C@H](CO)CCc2oc(C(C)=O)c(C(=O)OC)c2C(=O)OC)nn1
-3.04

Provide measured z-score value, entry: COCCOC(=O)N1C(=O)[C@@]2(c3ccccc31)[C@H](c1ccc(O)cc1)N1[C@H](c3ccccc3)[C@H](c3ccccc3)OC(=O)[C@H]1[C@@H]2C(=O)N1CCCCCCC1
0.54

Provide measured z-score value, entry: COC(=O)C1(Cc2ccccc2)C=C2C(=C(C)C(=O)C2C)CN1 (centres undefined)
0.436

Provide measured z-score value, entry: [N-]=[N+]=NCc1ccccc1[C@@H]1OC(c2ccc(OCCCO)cc2)=N[C@]1(Cc1ccccc1N=[N+]=[N-])C(=O)NCC(O)CO (some centres undefined)
-0.868

* * *

target: Calmodulin-1 (Homo sapiens) (UniProt P0DP23); assay: small molecules binding calmodulin-1 with EGTA – biochemical, small-molecule microarray, Cy5-labelled CALM1, profiling panel (AID 1111); settings: Cy5-CALM1 binding fluorescence, higher = more signal;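 also: labelled calmodulin applied in Tris saline Tween buffer holding calcium plus EGTA and DTT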
reported property: composite z-score
Note: the reply should be a number with no unit written.

Provide measured composite z-score value, entry: C=CC1c2cc(O)c(OC)cc2CCN1C (configuration not stated)
0.504

Provide measured composite z-score value, entry: CC(C)C(=C=CC[C@H](O)c1ccccc1OCCO)C[C@H](O)COCc1ccccc1
0.444

Provide measured composite z-score value, entry: Cc1ccccc1C(O)C1C=CC2C(=O)N(c3ccccc3)C(=O)C2N1Nc1ccccc1 (configuration not stated)
2.12

Provide measured composite z-score value, entry: COc1ccc([Si](C)(C)[C@@H]2[C@@H](CC(=O)N3CCC[C@H]3CO)O[C@]3(C(=O)N(Cc4cccc(N5CCCCC5=O)c4)c4ccccc43)[C@H]2C)cc1
0.336

Provide measured composite z-score value, entry: O=C1C[C@@](C(=O)O)(c2ccc([N+](=O)[O-])cc2)[C@@H](c2ccc(CO)cc2)N1C1CCCCC1
1.2

Provide measured composite z-score value, entry: Cc1ccc(F)cc1S(=O)(=O)N[C@H]1CCN(Cc2ccc(OC(C)C)cc2)C1
-0.781

Provide measured composite z-score value, entry: COc1cc(CO)cc(I)c1O[C@H]1C=C(C(=O)NCCO)C[C@@H](NC2CCCCCC2)[C@@H]1O
0.475

Provide measured composite z-score value, entry: COC(=O)[C@@]1(Cc2ccc(OC)cc2)[C@H]2c3cc(C(=O)N4CCCC4)n(Cc4c(CO)[nH]cc(C)c4=O)c3C[C@H]2CN1C(=O)c1ccccc1
2.05

Provide measured composite z-score value, entry: COc1ccc([Si](C)(C)[C@H]2[C@H](CCO)O[C@@]3(C(=O)N(Cc4cccc(N(C=O)c5ccccc5)c4)c4ccccc43)[C@@H]2C)cc1
0.909

Provide measured composite z-score value, entry: CN(C)CCCC[C@@H]1NC(=O)[C@@H]2C[C@H](C(=O)NCCCCCN)[C@H](c3cccc(OCCO)c3)N2C1=O
1.77

Provide measured composite z-score value, entry: CCCCN1CC=CC23O[C@@H]4/C=C\CCCOC(=O)C4[C@H]2C(=O)N(C(CO)C(C)C)[C@@H]3C1=O (some centres not stated)
-0.11

Provide measured composite z-score value, entry: CCOC(=O)C[C@H]1[C@H](OC(=O)Cc2ccc3c(c2)OCO3)[C@@H](NC(=O)c2ccc3ccccc3n2)c2cc(OCCCO)ccc2N1C(=O)Cc1ccc(OC)cc1
0.436

Provide measured composite z-score value, entry: C=CC[C@@]12N=C(c3ccc(OCCCO)cc3)O[C@@H]1c1ccccc1N(CCC)C2=O
0.106

Provide measured composite z-score value, entry: [N-]=[N+]=Nc1ccccc1C[C@]1(C(=O)N2CCOCC2)N=C(c2ccc(OCCCO)cc2)O[C@H]1c1ccccc1N=[N+]=[N-]
1.5

Provide measured composite z-score value, entry: C=C(CCCC)/C(=C/C[C@H](OC(=O)c1ccncc1)c1ccccc1OCCO)c1cc(C(=O)OC)ccc1OC
-0.0646

Provide measured composite z-score value, entry: COC(=O)[C@@]1(Cc2ccc(F)cc2)[C@H]2c3cc(C(=O)N4CCCC4)n(Cc4ccccn4)c3C[C@H]2CN1C(=O)c1ccccc1
1.36

Provide measured composite z-score value, entry: CC(C)[Si](C#CCCc1ccccc1)(O[C@H](c1ccccc1)c1cn(Cc2ccccc2)nn1)C(C)C
0.138

Provide measured composite z-score value, entry: O=C1C[C@@](C(=O)NC2CC2)(c2ccc([N+](=O)[O-])cc2)[C@@H](c2ccc(CO)cc2)N1C1CCCCC1
0.522

Provide measured composite z-score value, entry: C=C1C(=O)C=C2CN(C(=O)c3ccccc3)[C@@](Cc3ccc(OC)cc3)(C(=O)OC)[C@@H]12
2.16

Provide measured composite z-score value, entry: O=C1O[C@H](c2ccccc2)[C@H](c2ccccc2)N2[C@H]1[C@@H](C(=O)O)[C@]1(C(=O)Nc3ccc(C#CCCO)cc31)[C@H]2c1ccc(OCCO)cc1
1.05

Provide measured composite z-score value, entry: O=C(NC1CC1)[C@@H]1c2ccccc2C(=O)N(Cc2ccc(OC(F)(F)F)cc2)[C@H]1c1ccc(CO)cc1
0.168

Provide measured composite z-score value, entry: CCOC(=O)C[C@H]1[C@H](OC(=O)c2ccccc2-c2ccccc2)[C@@H](NC(=O)c2ccc3ccccc3c2)c2cc(OCCCO)ccc2N1C(=O)Cc1ccc(OC)cc1
0.115
